Tested on: 292921-168-R-J2-PDC complex spheroid growth
Experiment: Anticancer human tumor 292921-168-R-J2-PDC patient-derived pancreatic carcinoma cell line growth inhibition [AhR]
Settings: curve of first compound; second compound 0.1 µM
Text: Multicellular complex tumor spheroid response to aryl hydrocarbon receptor antagonists in combination with a variety of drugs and investigational agents in selected tumor cell lines […] Compounds. […] If the clinical Cmax for an agent had not been determined, the highest concentration tested was 10 microM (Table 1). […]
Value Kind: IC50 (nM)
Answers are plain numbers, in nM.

Return reported IC50; argument: COc1ccc([C@@H](O)c2cc(-c3ncnc4cc(N5CCOCC5)ccc34)c(F)cc2Cl)nn1 + Cc1cncc(-c2nc(NCCc3c[nH]c4ccccc34)c3ncn(C(C)C)c3n2)c1
2030

Return reported IC50; argument: CC1COCCN1c1cc(-c2ccnn2C)c2ccnc(-c3ccn[nH]3)c2n1 (centres undefined) + Cc1ccccc1N=Nc1ccc(NC(=O)c2ccnn2C)c(C)c1
38.5

Batch request: IC50 per item, same order as input.
1. Nc1ccccc1NC(=O)c1ccc(CNC(=O)OCc2cccnc2)cc1 + Cc1ccccc1N=Nc1ccc(NC(=O)c2ccnn2C)c(C)c1
2. CC1COCCN1c1cc(C2(S(C)(=N)=O)CC2)nc(-c2ccnc3[nH]ccc23)n1 (centres undefined) + Cc1ccccc1N=Nc1ccc(NC(=O)c2ccnn2C)c(C)c1
3. COc1cc(C2c3cc4c(cc3C(OC3OC5COC(C)OC5C(O)C3O)C3COC(=O)C23)OCO4)cc(OC)c1O (centres undefined) + Cc1ccccc1N=Nc1ccc(NC(=O)c2ccnn2C)c(C)c1
4. CC1COCCN1c1cc(-c2ccnn2C)c2ccnc(-c3ccn[nH]3)c2n1 (centres undefined) + CC(CO)NC(=O)c1cc(-c2ccc(Cl)cc2)nn(-c2cnn(C)c2)c1=O
5. CC(C)CC(NC(=O)C(Cc1ccccc1)NC(=O)c1cnccn1)B(O)O (centres undefined) + CC(CO)NC(=O)c1cc(-c2ccc(Cl)cc2)nn(-c2cnn(C)c2)c1=O
6. Nc1ccccc1NC(=O)c1ccc(CNC(=O)OCc2cccnc2)cc1 + Cc1cncc(-c2nc(NCCc3c[nH]c4ccccc34)c3ncn(C(C)C)c3n2)c1
7. NS(=O)(=O)OCC1CC(n2ccc3c(NC4CCc5ccccc54)ncnc32)CC1O (centres undefined) + CC(CO)NC(=O)c1cc(-c2ccc(Cl)cc2)nn(-c2cnn(C)c2)c1=O
8. CC1(C)CCC(CN2CCN(c3ccc(C(=O)NS(=O)(=O)c4ccc(NCC5CCOCC5)c([N+](=O)[O-])c4)c(Oc4cnc5[nH]ccc5c4)c3)CC2)=C(c2ccc(Cl)cc2)C1 + Cc1cncc(-c2nc(NCCc3c[nH]c4ccccc34)c3ncn(C(C)C)c3n2)c1

539
2760
396
43.3
6.1
351
213
6870

Batch request: IC50 per item, same order as input.
1. CC1(C)CCC(CN2CCN(c3ccc(C(=O)NS(=O)(=O)c4ccc(NCC5CCOCC5)c([N+](=O)[O-])c4)c(Oc4cnc5[nH]ccc5c4)c3)CC2)=C(c2ccc(Cl)cc2)C1 + CC(CO)NC(=O)c1cc(-c2ccc(Cl)cc2)nn(-c2cnn(C)c2)c1=O
2. O=C(C=Cn1cnc(-c2cc(C(F)(F)F)cc(C(F)(F)F)c2)n1)NNc1cnccn1 + CC(CO)NC(=O)c1cc(-c2ccc(Cl)cc2)nn(-c2cnn(C)c2)c1=O

1: 6190; 2: 88.1

* * *

System: 292921-168-R-J2-PDC complex spheroid growth
Assay: Anticancer human tumor 292921-168-R-J2-PDC cell line growth inhibition [AhR];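 also: spheroids exposed to compounds for seven days after three days of growth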
Conditions: second compound 3.16 µM; first compound 0.0316 µM; stronger effect = lower value
Excerpt: Multicellular complex tumor spheroid response to aryl hydrocarbon receptor antagonists in combination with a variety of drugs and investigational agents in selected tumor cell lines […] Compounds. […] If the clinical Cmax for an agent had not been determined, the highest concentration tested was 10 microM (Table 1). […]
Exercise: for every item that follows, state its recorded viability, T/C.

Return reported viability, T/C; argument: CC[C@@]1(O)C(=O)OCc2c1cc1n(c2=O)Cc2cc3c(CN(C)C)c(O)ccc3nc2-1 + CC(CO)NC(=O)c1cc(-c2ccc(Cl)cc2)nn(-c2cnn(C)c2)c1=O
45.1%

Batch request: viability, T/C per item, same order as input.
1. NS(=O)(=O)OCC1CC(n2ccc3c(NC4CCc5ccccc54)ncnc32)CC1O (configuration not stated) + Cc1cncc(-c2nc(NCCc3c[nH]c4ccccc34)c3ncn(C(C)C)c3n2)c1
2. COc1cc(Nc2ncc3c(n2)-c2ccc(Cl)cc2C(c2c(F)cccc2OC)=NC3)ccc1C(=O)O + CC(CO)NC(=O)c1cc(-c2ccc(Cl)cc2)nn(-c2cnn(C)c2)c1=O
3. CC(C)c1c(-c2ccccc2)nc2c(C#N)c[nH]n2c1=O + Cc1cncc(-c2nc(NCCc3c[nH]c4ccccc34)c3ncn(C(C)C)c3n2)c1

1: 111%; 2: 45.3%; 3: 76.4%

Batch request: viability, T/C per item, same order as input.
1. O=C(C=Cc1cccc(S(=O)(=O)Nc2ccccc2)c1)NO + Cc1ccccc1N=Nc1ccc(NC(=O)c2ccnn2C)c(C)c1
2. O=C(c1cc(Cc2n[nH]c(=O)c3ccccc23)ccc1F)N1CCN(C(=O)C2CC2)CC1 + Cc1cncc(-c2nc(NCCc3c[nH]c4ccccc34)c3ncn(C(C)C)c3n2)c1
3. Cn1ncnc1C1c2n[nH]c(=O)c3cc(F)cc(c23)NC1c1ccc(F)cc1 (configuration not stated) + Cc1cncc(-c2nc(NCCc3c[nH]c4ccccc34)c3ncn(C(C)C)c3n2)c1
4. Nc1ccccc1NC(=O)c1ccc(CNC(=O)OCc2cccnc2)cc1 + CC(CO)NC(=O)c1cc(-c2ccc(Cl)cc2)nn(-c2cnn(C)c2)c1=O
5. CC1COCCN1c1cc(-c2ccnn2C)c2ccnc(-c3ccn[nH]3)c2n1 (configuration not stated) + Cc1ccccc1N=Nc1ccc(NC(=O)c2ccnn2C)c(C)c1

1. 65.8%
2. 61.6%
3. 60.1%
4. 60.8%
5. 37.3%

* * *

system: 292921-168-R-J2-PDC complex spheroid growth; assay: Anticancer human tumor 292921-168-R-J2-PDC cell line growth inhibition [AhR]; settings: curve of first compound; second compound 0.1 µM;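 also: spheroids exposed to compounds for seven days after three days of growth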
Value Kind: pIC50
Numbers only, as −log10 of the molar value.

Return reported pIC50; argument: CC(C)CC(NC(=O)C(Cc1ccccc1)NC(=O)c1cnccn1)B(O)O (stereo not drawn) + Cc1ccccc1N=Nc1ccc(NC(=O)c2ccnn2C)c(C)c1
8.19

Next up:
Return reported pIC50; argument: O=C(C=Cc1cccc(S(=O)(=O)Nc2ccccc2)c1)NO + Cc1cncc(-c2nc(NCCc3c[nH]c4ccccc34)c3ncn(C(C)C)c3n2)c1
6.43

* * *

Exercise: for every item that follows, state its recorded viability, T/C.
tested on: 292921-168-R-J2-PDC complex spheroid growth; assay: Anticancer human tumor 292921-168-R-J2-PDC cell line growth inhibition [AhR]; conditions: second compound 0.316 µM; first compound 0.316 µM; stronger effect = lower value;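 also: spheroids exposed to compounds for seven days after three days of growth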
One number for each entry, in %.

Past entries and their recorded results:
Return reported viability, T/C; argument: COc1ccc([C@@H](O)c2cc(-c3ncnc4cc(N5CCOCC5)ccc34)c(F)cc2Cl)nn1 + Cc1cncc(-c2nc(NCCc3c[nH]c4ccccc34)c3ncn(C(C)C)c3n2)c1
81

Return reported viability, T/C; argument: NS(=O)(=O)OCC1CC(n2ccc3c(NC4CCc5ccccc54)ncnc32)CC1O (stereo unspecified) + Cc1cncc(-c2nc(NCCc3c[nH]c4ccccc34)c3ncn(C(C)C)c3n2)c1
25.1

Return reported viability, T/C; argument: Nc1ccccc1NC(=O)c1ccc(CNC(=O)OCc2cccnc2)cc1 + Cc1ccccc1N=Nc1ccc(NC(=O)c2ccnn2C)c(C)c1
58.9

Return reported viability, T/C; argument: CC1COCCN1c1cc(C2(S(C)(=N)=O)CC2)nc(-c2ccnc3[nH]ccc23)n1 (stereo unspecified) + CC(CO)NC(=O)c1cc(-c2ccc(Cl)cc2)nn(-c2cnn(C)c2)c1=O
105

Return reported viability, T/C; argument: O=C(C=Cc1cccc(S(=O)(=O)Nc2ccccc2)c1)NO + Cc1cncc(-c2nc(NCCc3c[nH]c4ccccc34)c3ncn(C(C)C)c3n2)c1
50.9

Next up:
Return reported viability, T/C; argument: CC1COCCN1c1cc(-c2ccnn2C)c2ccnc(-c3ccn[nH]3)c2n1 (stereo unspecified) + Cc1cncc(-c2nc(NCCc3c[nH]c4ccccc34)c3ncn(C(C)C)c3n2)c1
18.7

* * *

tested on: 292921-168-R-J2-PDC complex spheroid growth; experiment: Anticancer human tumor 292921-168-R-J2-PDC cell line growth inhibition [AhR]; settings: second compound 0.1 µM; first compound 3.16 µM; active means viability on the fitted dose curve at most 10% of control; inactive means the rest;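 also: spheroids exposed to compounds for seven days after three days of growth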
Reply using exactly one outcome from active, inactive

Field: outcome | Entry: O=C(c1cc(Cc2n[nH]c(=O)c3ccccc23)ccc1F)N1CCN(C(=O)C2CC2)CC1 + Cc1cncc(-c2nc(NCCc3c[nH]c4ccccc34)c3ncn(C(C)C)c3n2)c1
inactive

***
Field: outcome | Entry: COc1cc(C2c3cc4c(cc3C(OC3OC5COC(C)OC5C(O)C3O)C3COC(=O)C23)OCO4)cc(OC)c1O (stereo not drawn) + Cc1ccccc1N=Nc1ccc(NC(=O)c2ccnn2C)c(C)c1
inactive

Field: outcome | Entry: O=C(C=Cc1cccc(S(=O)(=O)Nc2ccccc2)c1)NO + Cc1cncc(-c2nc(NCCc3c[nH]c4ccccc34)c3ncn(C(C)C)c3n2)c1
inactive

Field: outcome | Entry: Nc1ccccc1NC(=O)c1ccc(CNC(=O)OCc2cccnc2)cc1 + Cc1cncc(-c2nc(NCCc3c[nH]c4ccccc34)c3ncn(C(C)C)c3n2)c1
inactive

Field: outcome | Entry: O=C(c1cc(Cc2n[nH]c(=O)c3ccccc23)ccc1F)N1CCN(C(=O)C2CC2)CC1 + CC(CO)NC(=O)c1cc(-c2ccc(Cl)cc2)nn(-c2cnn(C)c2)c1=O
inactive

Field: outcome | Entry: CC1COCCN1c1cc(C2(S(C)(=N)=O)CC2)nc(-c2ccnc3[nH]ccc23)n1 (stereo not drawn) + CC(CO)NC(=O)c1cc(-c2ccc(Cl)cc2)nn(-c2cnn(C)c2)c1=O
inactive
